measured-target: human P2X3 receptor (Homo sapiens, UniProt P56373)
Construct: full-length receptor stably expressed in 1321 N1 astrocytoma cells; homotrimer
Sequence (P56373 whole entry): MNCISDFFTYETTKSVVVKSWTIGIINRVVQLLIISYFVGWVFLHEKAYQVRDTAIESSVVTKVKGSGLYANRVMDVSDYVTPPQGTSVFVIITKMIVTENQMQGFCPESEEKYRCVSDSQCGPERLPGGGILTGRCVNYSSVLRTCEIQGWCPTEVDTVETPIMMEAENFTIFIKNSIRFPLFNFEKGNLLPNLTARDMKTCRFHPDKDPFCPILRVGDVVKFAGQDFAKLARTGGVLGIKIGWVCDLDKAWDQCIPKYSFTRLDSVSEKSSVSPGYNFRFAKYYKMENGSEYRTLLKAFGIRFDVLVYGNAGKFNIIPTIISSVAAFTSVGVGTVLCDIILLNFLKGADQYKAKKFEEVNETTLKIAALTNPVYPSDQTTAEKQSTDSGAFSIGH
assay-method-text: inhibition of ATP-induced calcium influx
test-conditions: agonist ATP at ~80% of maximal effect; read-out: 6
Description: inhibition of ATP-induced calcium influx on human P2X3 receptor
readout: IC50 (µM)
Answer format: numeric, µM implied, no suffix.

API: value(readout=IC50, system=human P2X3 receptor (Homo sapiens, UniProt P56373)) for record COC1C(C)=CCCCCOC(=O)CCCC(C)=CC(O)C(C)C=C(C)C=C(C)C=CC(O)C1C (stereo not shown) [compound 6, Analogue 6] 1.19
